- Protocol Text: coupled detection enzyme interference, dose response, artefact control for MgcRacGAP inhibitor project, biochemical, coupled enzyme counter-screen (AID 624351);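 note: signal is the ADP detection kit reading of free GDP without any GAP enzyme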
- Protocol Conditions: ADP Hunter coupled enzyme counter-screen, fluorescence, no MgcRacGAP; series mostly up to 80 µM
Out of some 2,400 compounds screened, about 1,400 (58%) were called active.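 Rule for the calls: active = inhibition of 30% or more at any tested dose; inconclusive = primary hits over the limit that were never retested; inactive = the rest.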 So high a share suggests a set chosen from earlier hits. This is one part of the list.
In this exercise, the only acceptable responses are active, inactive

[[record]]
molecule = "O=C1C=CC2(O[C@H](c3ccccc3)[C@@H](c3ccccc3)O2)[C@H](Sc2ccccc2O)C1"
group = "inactive"

[[record]]
molecule = "COc1cc(/C=N/NC(=O)CCC(=O)Nc2ccc(F)cc2)ccc1O"
group = "active"

[[record]]
molecule = "COc1ccc(C(=O)/C=C(\\C)Nc2ccc(NC(C)=O)cc2)cc1"
group = "inactive"

[[record]]
molecule = "CN(CCOc1ccc(Cl)c(Cl)c1)Cc1ccccc1"
group = "inactive"

[[record]]
molecule = "CN=c1scc(-c2ccco2)n1/N=C/c1ccc(O)c(O)c1"
group = "active"


**Query** For CC(OC(=O)CCN=C1NS(=O)(=O)c2ccccc21)C(=O)Nc1ccc(N(C)C)cc1 (stereo unspecified) , what call appears in the results of this test?
**Result** active

**Query** How about this molecule: `COc1ccc(-n2cccc2/C=C/[N+](=O)[O-])cc1`
**Result** inactive

**Query** How about this molecule: `Nc1ccc(OCCc2ccccc2)cc1`
**Result** active

**Query** How about this molecule: `Cn1c(=O)[nH]c(N)c(Br)c1=O`
**Result** inactive

**Query** How about this molecule: `CN(C1CCCCC1)S(=O)(=O)c1cccc2nsnc12`
**Result** inactive

**Query** How about this molecule: `CCOc1cc(/C=N/NC(=O)CSc2cccc3cccnc23)ccc1O`
**Result** active

**Query** How about this molecule: COc1cc(/C=N/NC(=S)NC2CC3CCC2C3)ccc1O (stereo unspecified)
**Result** active

**Query** How about this molecule: `COc1cccc(CN2CCN(Cc3cc(OC)c(OC)cc3[N+](=O)[O-])CC2)c1`
**Result** inactive

**Query** How about this molecule: `Cc1sc2c3ccsc3ccc2[n+]1C`
**Result** inactive

**Query** How about this molecule: `C=CCn1c(SCC(C)=O)nnc1-c1cc(-c2ccccc2)sc1N`
**Result** active
